- System: MDA-MB-231
- PROTOCOL SUMMARY: NCI tumour cell line growth inhibition, 48 h
Activity calls are given as the source filed them. No stated cut-off is given here; in the data, active = GI50 up to about 1.1 µM and inactive = higher.
ASSAY METRIC: GI50

Reported GI50 (MDA-MB-231) for entry COc1cc(C2c3cc4c(cc3OC(NNc3ccccc3)C2C)OCO4)cc(OC)c1O (centres undefined) is 1.12 µM (inactive)

Noted GI50 for CC(=O)OC1O[C@@H](C(C)(C)O)CC[C@@H]1[C@H]1CC[C@@]2(C)C3=C(CC[C@]12C)[C@@]1(C)C[C@@H](OC(=O)CC(C)(O)CC(=O)O)[C@H](OC(C)=O)C(C)(C)C1CC3 (some centres undefined) , tested on MDA-MB-231: 23 µM (inactive)

GI50 on MDA-MB-231 for O=C(O)CCCCCNC(=O)CCC(CN(CC(=O)OCc1ccccc1)CC(=O)OCc1ccccc1)N(CC(=O)OCc1ccccc1)CC(=O)OCc1ccccc1 (centres undefined) is 19.5 µM (inactive)

Entry CCN(CCC#N)C(=O)Nc1ccccc1 ; assay system MDA-MB-231; GI50 recorded at > 100 µM (inactive)

MDA-MB-231 GI50 of CNC(=O)Nn1c(SC)nc2ccccc21 is > 100 µM (inactive)

Tested system MDA-MB-231; GI50 recorded for O=C1C2CCN(CC2)C1CN1CCOCC1 (centres undefined) was 24.7 µM (inactive)

# GI50 measured on MDA-MB-231 for item CC1(C)CCC2=C(O1)c1ccccc1/C(=N/c1ccc([N+](=O)[O-])cc1)C2=O = 17.7 µM (inactive)

// GI50 (MDA-MB-231) for CC(=O)OC1COC(Nc2nc(N)n(C)c(=O)c2N=O)C(OC(C)=O)C1OC(C)=O (centres undefined) = > 10 µM (inactive)

Readout GI50 for O=C(N/C=C1\C(=O)Oc2ccccc2C1=O)Oc1ccccc1 , test system MDA-MB-231, was 16.7 µM (inactive)

###

- System: UACC-257
- PROTOCOL SUMMARY: NCI tumour cell line growth inhibition, 48 h
Calls of active or inactive are those of the source. No stated cut-off is given here; in the data, active = GI50 up to about 1.1 µM and inactive = higher.
What GI50 was measured for each of the following?

// GI50 lookup, compound = O=C(CSc1nnc[nH]1)C[P+](c1ccccc1)(c1ccccc1)c1ccccc1 , result: > 100 µM (inactive)

Measured GI50, COC(=O)c1ccccc1NCc1cc(O)ccc1O : 15.6 µM (inactive)

Entry CCc1nc(N)nc(N)c1-c1ccc([N+](C)(C)C)cc1 — recorded GI50 = > 100 µM (inactive)

The reported value for CC(=O)c1c2c(cc3c1CC1(C3)Cc3cc4c(c(C(C)=O)c3C1)CCCC4)CCCC2 in terms of GI50 is 25.1 µM (inactive)

Note to self: GI50 recorded for Cc1ccc(/C=C2\Cc3cc(C)c(C)cc3C2=O)c(C(=O)O)c1 was 24.5 µM (inactive)

Lookup result for CC(=O)O[C@H]1CC[C@H]2[C@@H]3CCC4C(C)=NNC(=O)C4[C@H]3CC[C@]12C (stereo partly drawn) ; measured GI50: > 100 µM (inactive)

The compound identified as CCCNC(=O)c1cc2ccccc2cc1C(=O)OC registered its GI50 at > 100 µM (inactive)

According to the records, this compound O=C(Nc1ccccc1)c1cc(S(=O)(=O)Nc2nc3cccnc3[nH]2)c(SSc2cc(Cl)c(C(=O)Nc3ccccc3)cc2S(=O)(=O)Nc2nc3cccnc3[nH]2)cc1Cl displays GI50 of > 100 µM (inactive)

###

- Tested on: SNB-19
- PROTOCOL SUMMARY: NCI tumour cell line growth inhibition, 48 h
The source made the active and inactive calls. Cut-off read from the data, not from the text of the source: active = GI50 up to about 1.1 µM and inactive = higher.
The reply should be one of these categories: active, inactive

Dear all, I need the recorded test outcome for Cc1c(C(=O)NNc2ccccc2)n2c(S)nnc2c2ccccc12 , thank you. inactive

Please let me know the test result on file for CCOC(=O)/C(=C/c1ccccn1)C(=O)c1ccccc1 . inactive

Hi, do you know how Cc1cc(=O)oc2c(C3=NN(C=O)C(c4ccccc4)C3)c(O)ccc12 (stereo not given) came out in this test? inactive

Assay outcome for C=CCC1(O)CC(n2cc(C)c(=O)[nH]c2=O)OC1CO[Si](C)(C)C(C)(C)C (stereo not given) : what was it? inactive

# fetch the recorded call for CN(C)CCN1CCc2c([nH]c3ccccc23)C1c1cccnc1 (stereo not given) here inactive

Outcome logged for COc1cc2c(c(OC)c1OC)-c1ccc(SC)c(=O)cc1C(CC(=O)Oc1ccc(F)cc1)C2 (stereo not given) in this assay: active

Kindly provide the recorded test outcome for the following molecule: C=CCc1cccc2cc(C(=O)Nc3ccccn3)c(=N)oc12 inactive

I'd appreciate the recorded outcome for COc1nc(NC2OCC(OC(C)=O)C(OC(C)=O)C2OC(C)=O)c(-c2csc(N)n2)c(=O)n1C (stereo not given) from this test. inactive

What was the test verdict on COc1ccc(OC)c2c(/C=C/c3ccc(N(C)C)cc3)ccnc12 ? inactive

What did this assay record as the result for CC(=O)OCc1cc2c(s1)C(=O)c1sccc1C2=O ? active

###

- Tested on: OVCAR-3
- PROTOCOL SUMMARY: NCI tumour cell line growth inhibition, 48 h
Calls of active or inactive are those of the source. No stated cut-off is given here; in the data, active = GI50 up to about 1.1 µM and inactive = higher.
Give one outcome, nothing more. List: 1 (yes) (active), 0 (no) (inactive)

Name the outcome recorded for CCN(CC)CCCC(C)Nc1c2cc(OC)cc(C)c2nc2c(C)c(Cl)ccc12 (stereo not given) in the assay. 0 (no)

Assay result, entry Cc1ccc(N2C(=O)C(=O)N(/N=C3\C(=O)Nc4ccccc43)C2=S)cc1 — outcome? 0 (no)

What did this assay record as the result for Cc1nc(=O)[nH]c2c1C(=O)N(C(C)C)C(NC(C)C)S2 (stereo not given) ? 0 (no)

What call does the record list for O=c1[nH]c2ccccc2c(=O)n1/N=C\c1ccccc1O ? 0 (no)

// outcome(item) with item = COc1ccc2c3c([nH]c2c1[N+](=O)[O-])C(C)N(C)CC3 (stereo not given) 0 (no)

Outcome? Cc1c(C(=O)/C=C/c2ccccc2O)c(=O)n(-c2ccccc2)n1C 0 (no)

// outcome(item) with item = N#Cc1ccccc1NC(=O)C(O)C(O)C(O)C(O)C=O (stereo not given) 0 (no)

Which result was noted for this compound in the test: O=C1CSSCC(=O)Nc2ccccc2N1 0 (no)

Could you check what this test reported for CC(=O)OC1C(C)OC(OC(=O)C2CCC3C(C2)OC2(CC(OC(=O)/C=C/c4ccccc4)C(C)CO2)C32CO2)C(OC2OC(C)C(O)C(OC(C)=O)C2O)C1O (stereo not given) ? 1 (yes)

Please state the recorded outcome for this compound: CN(C)CCN(c1ccccn1)c1ccccn1 0 (no)

# lookup: test call for O=C1NC(N2CCOCC2)=N/C1=C\c1ccccc1 0 (no)

Dear colleague, could you share the recorded outcome for COc1ccc2cc3n(c(=O)c2c1)CCc1c-3cc(OC)c(OC)c1OC when you have a moment? 0 (no)

What was the test verdict on Nc1cc2c(cc1[N+](=O)[O-])[nH]c1c(-c3ccccc3)nccc12 ? 0 (no)

Give the logged outcome of this assay for the following compound: COc1ccc(C(=O)c2c(C(C(=O)c3ccc(OC)cc3)C(=O)c3ccc(OC)cc3)n(C(=O)c3ccc(OC)cc3)c3ccccc23)cc1 0 (no)

Dear colleague, could you share the recorded outcome for O=C(N/C(=C\c1ccc(/C=C(\NC(=O)c2ccccc2)c2nc3cc(Cl)ccc3[nH]2)cc1)c1nc2cc(Cl)ccc2[nH]1)c1ccccc1 when you have a moment? 0 (no)

How did this test come out for COC(=O)C1=C(C)N(NC(=O)OC(C)(C)C)C(=O)C1=P(c1ccccc1)(c1ccccc1)c1ccccc1 ? 0 (no)

Could you kindly confirm the outcome this assay logged for CCc1nc(N)nc(N)c1-c1ccc([N+](C)(C)C)cc1 ? 0 (no)

Outcome logged for COc1cc2c(cc1OC)[Se]c1cc(OC)c(OC)cc1[Se]2 in this assay: 0 (no)

Record lookup: outcome of this test for C/C(=N\Nc1ncnc2ccccc12)c1ccccn1 ? 1 (yes)

What is the recorded call for this compound in the test? Cc1ccc([N+](=O)[O-])cc1S(=O)(=O)Nc1ccc(C2=NN(C(=O)c3ccccc3)C(c3cccs3)C2)cc1 (stereo not given) 0 (no)

###

Record form. Attribute: GI50. Fill in for each entry.
- Test system: SF-539
- PROTOCOL SUMMARY: NCI tumour cell line growth inhibition, 48 h
Calls of active or inactive are those of the source. Cut-off read from the data, not from the text of the source: active = GI50 up to about 1.1 µM and inactive = higher.

Reported GI50 for Cc1nc2sccn2c1/C=C1/C(=O)Nc2cccc(Cl)c21 was > 100 µM (inactive)

Recorded GI50 (compound COC(=O)c1ccccc1NCc1cc(O)ccc1O ): 17.7 µM (inactive)

Measured GI50 of CCOC(=O)C(NC(=O)c1ccccc1)(Nc1ccc(S(=O)(=O)Nc2cc(C)nc(C)n2)cc1)C(F)(F)F (configuration not stated) : > 100 µM (inactive)

Consider [O-][S+](Cc1cc2c(cc1Br)OCO2)c1ccccc1 (configuration not stated) . Its measured GI50 is 32.7 µM (inactive)

Entry O=C1OC2(c3ccccc31)c1cc(I)c(O)c(I)c1Oc1c2cc(I)c(O)c1I [ERYTHROSINE] , GI50 reported as > 100 µM (inactive)

# GI50 of COc1cc(C2c3cc(O)c(OC)cc3C3OCC2C3CO)ccc1O (configuration not stated) = > 100 µM (inactive)

GI50 in this record for CC(ON(C(c1ccccc1)C(C)C)C(C)(C)C)c1ccccc1 (configuration not stated) : 21.6 µM (inactive)

Entry source: ChEMBL document CHEMBL1201862
